molecular target: Mu-type opioid receptor (Homo sapiens, UniProt P35372); assay: Agonist activity at human mu opioid receptor expressed in HEK293 cells assessed as inhibition of forskolin-stimulated cAMP accumulation by fluorescence assay; type: functional, cell-based
Sequence (P35372 whole entry): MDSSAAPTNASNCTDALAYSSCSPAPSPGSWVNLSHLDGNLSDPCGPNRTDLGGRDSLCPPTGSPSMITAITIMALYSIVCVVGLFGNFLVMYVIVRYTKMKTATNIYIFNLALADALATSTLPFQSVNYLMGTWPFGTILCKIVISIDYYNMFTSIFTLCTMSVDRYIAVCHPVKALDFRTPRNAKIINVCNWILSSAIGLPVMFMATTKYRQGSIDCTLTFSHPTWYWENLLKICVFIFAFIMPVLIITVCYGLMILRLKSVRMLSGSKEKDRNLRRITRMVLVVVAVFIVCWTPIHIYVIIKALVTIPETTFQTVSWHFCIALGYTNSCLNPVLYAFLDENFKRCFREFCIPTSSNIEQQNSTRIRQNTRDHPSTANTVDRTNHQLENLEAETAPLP
MEASUREMENT NAME: pEC50
Interpret pEC50 as the negative base-10 log of the concentration measured in mol/L.

Which pEC50 reading was recorded for the compound "c1ccc([C@]2(CCNCc3cccnc3)CCOC3(CCCC3)C2)nc1" ?
6.70

Now this one: "c1ccc(CNCC[C@@]2(c3ccccn3)CCOC3(CCCC3)C2)nc1"
6.80

Now this one: "Cc1csc(CNCC[C@@]2(c3ccccn3)CCOC3(CCCC3)C2)c1"
8.30

Now this one: CC1(C)CC(CCNCc2ccccc2)(c2ccc(F)cc2)CCO1 (stereo unspecified)
5.80

Now this one: "Cc1ccsc1CNCC[C@@]1(c2ccccn2)CCOC2(CCCC2)C1"
8.20

Now this one: "c1ccc(CNCC[C@@]2(c3ccccn3)CCOC3(CCCC3)C2)cc1"
7.90

====

biological target: UniProt P35372; assay: Agonist activity at human mu opioid receptor expressed in HEK293 cells assessed as beta-arrestin recruitment by chemiluminescence assay; type: cell-based
What EC50 was measured for each of the following?
Express the result in µM but write the number alone.

Which EC50 reading was recorded for the molecule CC[C@]1(C)CC(CCNCc2ccccc2O)(c2ccc(F)cc2)CCO1 (stereo not given in full) ?
1.58

Now this one: "Clc1cccc(CNCC[C@@]2(c3ccccn3)CCOC3(CCCC3)C2)c1"
0.0501

Now this one: Fc1ccc(C2(CCNCc3ccccc3)CCOC3(CCCC3)C2)cc1 (racemic)
0.631

Now this one: "Cc1cc(CNCC[C@@]2(c3ccccn3)CCOC3(CCCC3)C2)sc1C"
0.501

Now this one: "c1ccc([C@]2(CCNCc3cccs3)CCOC3(CCCC3)C2)nc1"
0.251

Now this one: "Cc1ccc(CNCC[C@@]2(c3ccccn3)CCOC3(CCCC3)C2)o1"
0.2

Now this one: "Cc1cc(C)c(CNCC[C@@]2(c3ccccn3)CCOC3(CCCC3)C2)s1"
0.631

Now this one: "c1ccc(CNCC[C@@]2(c3ccccn3)CCOC3(CCCC3)C2)cc1"
0.158

Now this one: CC[C@]1(C)CC(CCNCc2ccccc2O)(c2ccc(C)cc2)CCO1 (stereo not given in full)
2

Now this one: "c1ccc(CNCC[C@]2(c3ccccn3)CCOC3(CCCC3)C2)cc1"
15.8

Now this one: "Fc1ccc([C@@]2(CCNCc3ccccc3)CCOC3(CCCC3)C2)cc1"
7.94

Now this one: "c1ccc([C@]2(CCNCc3ccncn3)CCOC3(CCCC3)C2)nc1"
2

Now this one: c1ccc(CNCCC2(c3ccccn3)CCOC3(CCCC3)C2)cc1 (racemic)
0.2

Now this one: "Fc1ccc([C@]2(CCNCc3ccccc3)CCOC3(CCCC3)C2)cc1"
0.398

Now this one: "c1ccc([C@]2(CCNCc3ccc4ccccc4c3)CCOC3(CCCC3)C2)nc1"
20

Now this one: "Cc1csc(CNCC[C@@]2(c3ccccn3)CCOC3(CCCC3)C2)c1"
0.398

Now this one: Fc1ccc(C2(CCNCc3ccccc3)CCOC3(CCCCC3)C2)cc1 (stereo not given)
7.94

Now this one: "c1ccc([C@]2(CCNCc3ccsc3)CCOC3(CCCC3)C2)nc1"
0.0631

Now this one: "Cc1cc(CNCC[C@@]2(c3ccccn3)CCOC3(CCCC3)C2)oc1C"
0.316

Now this one: CCC1(CC)CC(CCNCc2ccccc2)(c2ccc(F)cc2)CCO1 (stereo not given)
6.31

From: ChEMBL document CHEMBL2440083
